measured_on: T1, AA peptide
T1 construct: The peptide was coated on the Octet sensor; also called peptide with N-terminal alanine and penultimate alanine
measurement_description: BLI (Octet), peptide on sensor, purified protein in solution
Text: In the high-throughput assay, Octet sensors are coated with the peptide of interest and dipped in buffer containing the purified protein. An approximation of relative binding can be obtained by comparing the response after 200 seconds for each protein. Each protein has approximately the same molecular mass and is used at the same concentration, so ranking the proteins by response level in this assay gives an approximation of which proteins have improved binding. […]
Octet response after 200 sec association values by entry

Below, 5 binders whose answers are already recorded.
PS801/PS814 (designed binder, also called E63K) MPTAASATESAIEDTPAPARPEVDGRTKPKRQPRYHVVLWNDDDHTYQYVVVMLQSLFGHPPKRGYRLAKEVDTQGRVIVLTTTREHAELKRDQIHAFGYDRLLARSKGSMKASIEAEE | 0.0017 nm
PS824 (designed binder, Variant of PS557) MPTAASATESAFEDTPAPARPEVDGRTKPKRQPRYHVVLWDDDDHTYQYVVVMLRSLFGHPPERGYRLAKEMDTQGRVIVLTTTREHAELKRDQIHAFGYDRLLARSKGSMKASIEAEE | 3.9 nm
PS831 (designed binder, Variant of PS557) MPTAASATESAIEDTPAPARPEVDGRTKPKRQPRYHVVLWNDDDHTYQYVVVMLQSLFGHPRKRGYRLAKEMDTLGRVIVLTTTREHAELKRDQIHAFGYDRLLARSKGSMKASIEAEE | 1.4 nm
PS852 (designed binder, Variant of PS557) MPTAASATESAIEDTPAPARPEVDGRTKPKHQPRYHVVLWDDDDHTYQYVVVMLRSLFGHPPERGYRLAKEMDTQGRVIVLTTTREHAELKRDQIHAFGYDRLLARSKGSMKASIEAEE | 1.7 nm
PS838 (designed binder, Variant of PS557; also called V72M, N41D, P62R) MPTAASATESAIEDTPAPARPEVDGRTKPKRQPRYHVVLWDDDDHTYQYVVVMLQSLFGHPRERGYRLAKEMDTQGRVIVLTTTREHAELKRDQIHAFGYDRLLARSKGSMKASIEAEE | 3 nm

For record PS557 (other, Natural parent ClpS protein, expressed in E. coli and purified; also called WT; wild-type protein) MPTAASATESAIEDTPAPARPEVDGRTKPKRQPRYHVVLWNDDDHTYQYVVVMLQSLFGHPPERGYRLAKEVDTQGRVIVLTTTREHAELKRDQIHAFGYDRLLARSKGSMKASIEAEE the listed Octet response after 200 sec association is 0.01 nm

For record PS797 (designed binder, Variant of PS557; also called N41D, V72M, Q75L) MPTAASATESAIEDTPAPARPEVDGRTKPKRQPRYHVVLWDDDDHTYQYVVVMLQSLFGHPPERGYRLAKEMDTLGRVIVLTTTREHAELKRDQIHAFGYDRLLARSKGSMKASIEAEE the listed Octet response after 200 sec association is 3.2 nm

For record PS847 (designed binder, Variant of PS557) MPTAASATESAIEDTPAPARPEVDGRTKPKRQPRYHVVLWDDDDHTYQYVVVMLRSLFGHPPERGYRLAKEMDTQGRVIVLTTTREHAELKRDQIHAFGYDRLLARSKGSMKASIEAEE the listed Octet response after 200 sec association is 0.288 nm
